- System: PPARg:RXRa DBDmut IVT, anti-RXR (DBD mutation: RXRa K156A/R161A, NR concentration 270 nM, RXRa partner concentration 90 nM)
- MEASUREMENT PROTOCOL: PBM binding z-score (relative to random genomic background probes); higher = stronger binding; sequences stand for … in GC…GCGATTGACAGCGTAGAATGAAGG
Binary classification by PBM binding z-score, with 1 as an inclusive lower bound for t; all other cases are f.

- POLYMER SEQUENCE: "GCTAGCTGGTCAGTAAAAGGTCACACACCGGTCG"
  DISCRETE LABEL: "f"
- POLYMER SEQUENCE: "TCATATAGGTAATACAGGTTAAAGTCGGCATCTA"
  DISCRETE LABEL: "t"
- POLYMER SEQUENCE: "ATCTCTAGGTAACAAGTTCCGTGAAAGAGAGGAC"
  DISCRETE LABEL: "t"
- POLYMER SEQUENCE: "CGTCCAAGGTGAATGCTAGGTCAGTGAAAGCATT"
  DISCRETE LABEL: "t"
- POLYMER SEQUENCE: "CTCGAAAGGTCGGTTGAGGTGAGTCTACGGATAA"
  DISCRETE LABEL: "f"
- POLYMER SEQUENCE: "CCTATTAGTTGACCATAAGGGAAACCGAAGCTCG"
  DISCRETE LABEL: "f"
- POLYMER SEQUENCE: "CCTAGTTGGCCAGGAGGTCACACACCGGATATGA"
  DISCRETE LABEL: "f"
- POLYMER SEQUENCE: "ACTAGCAGGCCAAGGTTCACTCAAGATTAGTCCG"
  DISCRETE LABEL: "t"
- POLYMER SEQUENCE: "CCTAGTTGGTCAAGATCACACACGCTATAGGTAC"
  DISCRETE LABEL: "t"
- POLYMER SEQUENCE: "ATACGTAGGTTAAGGGTCATTCAGGTTGGTTCGC"
  DISCRETE LABEL: "t"
- POLYMER SEQUENCE: "ATATGTAGGTTAGCTGGGGTCATGCAGACTAGGC"
  DISCRETE LABEL: "t"
- POLYMER SEQUENCE: "ATATGTAGGTTACATCCGGGTCATGCAGGCTATG"
  DISCRETE LABEL: "t"
- POLYMER SEQUENCE: "GATACAGCGTCAGCTAGAGGCCAGAGTATGGAAA"
  DISCRETE LABEL: "f"
- POLYMER SEQUENCE: "TCTCGGAGAACACGAAAGGTCAGAGCTCGACATC"
  DISCRETE LABEL: "t"
- POLYMER SEQUENCE: "GGAACGAGGGCATAGTTGATAGCATCTGTCGACG"
  DISCRETE LABEL: "t"
- POLYMER SEQUENCE: "CCAGACAGGTGAAAGGTAACTCATTCTGGTACGC"
  DISCRETE LABEL: "t"
